Measured pIC50 by item
- Tested on: IL-2 in Jurkat (ATCC, clone E6.1) cells stimulated with anti-CD3/28/2
- assay-info: Jurkat IL-2 Assay
- Assay type: cell-based
- reported-conditions: Homo sapiens; IL-2 inhibition, Jurkat cells, 30 min compound then anti-CD3/28/2 stimulation for 24 hours; mean value if tested more than once; read-out: IC50
pIC50: −log10 of the molar value.

// solved cases for pIC50 follow
| compound | recorded-value |
| --- | --- |
| CO[C@@H](C)c1c(Nc2ccc([C@H](N(C)C(=O)[C@H]3CC[C@H](OC)CC3)C(F)(F)F)cc2)cnc2nc(Cl)nn12 | 6.00 to 7.00 |
| CO[C@@H](C)c1c(Nc2ccc([C@H](N(C)C(=O)C3CC3)C(F)(F)F)c(C)c2)cnc2nc(Cl)nn12 | < 6.00 |
| CNC(=O)N1CCC(C(=O)N(C)[C@@H](c2ccc(Nc3cnc4nc(Cl)nn4c3[C@H](C)OC)cc2)C(F)(F)F)C1 (stereo partly drawn) | 6.00 to 7.00 |
| CNC(=O)N1CCCC(C(=O)N(C)[C@@H](c2ccc(Nc3cnc4nc(Cl)nn4c3[C@H](C)OC)cc2)C(F)(F)F)C1 (stereo partly drawn) | < 6.00 |
| CO[C@@H](C)c1c(Nc2ccc([C@H](N(C)C(=O)C3CCCN(S(C)(=O)=O)C3)C(F)(F)F)cc2)cnc2nc(Cl)nn12 (stereo partly drawn) | < 6.00 |

Could you now look at the following compound, please?
Observed pIC50 on IL-2 in Jurkat (ATCC, clone E6.1) cells stimulated with anti-CD3/28/2, entry `CO[C@@H](C)c1c(Nc2ccc([C@H](N(C)C(=O)C3CCC3)C(F)(F)F)cc2C)cnc2nc(Cl)nn12` , equals < 6.00

---

- assay-info: High Throughput Dialysis (HTD) Human Plasma Protein Binding Assay
- Type: in vitro ADME
- reported-conditions: pooled human plasma, pH 7.4, equilibrium dialysis, 37° C., read-out: Human PPB (% Unbound)
- Procedure: Human plasma protein binding of various compounds of formula (I) were evaluated using the equilibrium dialysis method described herein. […] At the end of the dialysis, aliquots of 50 μL of the samples were taken from both the buffer side and the matrix side of the dialysis device. […] Test compound concentrations in matrix and buffer samples were expressed as peak area ratios (PAR) of analyte/internal standard (no standard curve). […]
The entries below are paired with their reported fraction unbound at 4 h, 2 µM.

Illustrative cases are given below, each with its answer.
| compound | fraction unbound at 4 h, 2 µM |
| --- | --- |
| CO[C@@H](C)c1c(Nc2ccc([C@H](N(C)C(=O)C3CCC(F)(F)CC3)C(F)(F)F)cc2)cnc2nc(Cl)nn12 [Compound 1.8] | < 0.08 |
| CO[C@@H](C)c1c(Nc2ccc([C@H](N(C)C(=O)C3CCS(=O)(=O)CC3)C(F)(F)F)cc2)cnc2nc(Cl)nn12 [Compound 1.1] | > 0.2 |
| CO[C@@H](C)c1c(Nc2ccc([C@H](N(C)C(=O)C3CCN(S(C)(=O)=O)C3)C(F)(F)F)cc2)cnc2nc(Cl)nn12 (stereo partly drawn) [Compound 3.10] | 0.08 to 0.2 |
| CO[C@@H](C)c1c(Nc2ccc([C@H](N(C)C(=O)[C@H]3C[C@H](c4nnn[nH]4)C3)C(F)(F)F)cc2)cnc2nc(Cl)nn12 [Compound 9.1] | < 0.08 |
| CO[C@@H](C)c1c(Nc2ccc([C@H](N(C)C(=O)[C@H]3CC[C@H](C(=O)O)CC3)C(F)(F)F)cc2)cnc2nc(Cl)nn12 [Compound 7.1] | 0.08 to 0.2 |

API: the following record is the query input.
Given item CO[C@@H](C)c1c(Nc2ccc([C@H](N(C)C(=O)[C@H]3CC[C@H](C(=O)N(C)C)CC3)C(F)(F)F)cc2)cnc2nc(Cl)nn12 [Compound 8.3] , the value recorded as its fraction unbound at 4 h, 2 µM is 0.08 to 0.2

---

- target-under-test: full length MALT1 (Homo sapiens (Human))
- Sequence (Q9UDY8 whole entry): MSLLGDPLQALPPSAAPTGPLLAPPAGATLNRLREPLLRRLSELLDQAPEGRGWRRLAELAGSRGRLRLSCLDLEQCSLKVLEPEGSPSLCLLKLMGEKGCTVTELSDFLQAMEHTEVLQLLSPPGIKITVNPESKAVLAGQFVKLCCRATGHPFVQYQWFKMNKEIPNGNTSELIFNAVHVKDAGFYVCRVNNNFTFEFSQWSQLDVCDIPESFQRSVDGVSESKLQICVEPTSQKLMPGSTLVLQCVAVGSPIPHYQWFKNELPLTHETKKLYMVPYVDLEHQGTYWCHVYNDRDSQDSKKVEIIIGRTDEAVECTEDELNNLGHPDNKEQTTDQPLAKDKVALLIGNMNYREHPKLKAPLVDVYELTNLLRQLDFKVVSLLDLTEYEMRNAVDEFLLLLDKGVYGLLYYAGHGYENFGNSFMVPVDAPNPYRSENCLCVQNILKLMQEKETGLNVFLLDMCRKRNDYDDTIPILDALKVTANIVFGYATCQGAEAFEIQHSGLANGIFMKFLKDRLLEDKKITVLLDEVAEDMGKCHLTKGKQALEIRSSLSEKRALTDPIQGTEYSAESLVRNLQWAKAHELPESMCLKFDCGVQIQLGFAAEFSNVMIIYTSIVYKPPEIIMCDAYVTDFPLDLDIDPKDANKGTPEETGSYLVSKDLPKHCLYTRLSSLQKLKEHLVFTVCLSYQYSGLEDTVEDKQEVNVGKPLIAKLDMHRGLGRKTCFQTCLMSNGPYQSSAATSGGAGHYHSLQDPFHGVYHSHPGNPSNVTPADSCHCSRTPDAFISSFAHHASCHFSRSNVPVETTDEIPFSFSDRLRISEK
As shown below, each of these compounds has a reported IC50 value.

| compound | IC50 |
| --- | --- |
| CO[C@@H](C)c1c(Nc2ccc([C@H](N(C)C(C)=O)C(F)(F)F)cc2)cnc2nc(Cl)nn12 | 100 to 1000 nM |
| CO[C@@H](C)c1c(Nc2ccc([C@H](N(C)C(=O)[C@H]3C[C@H](C(=O)O)C3)C(F)(F)F)cc2)cnc2nc(Cl)nn12 | 100 to 1000 nM |

Quick note, IC50 for CO[C@@H](C)c1c(Nc2ccc([C@H](N(C)C(=O)C3CCCCO3)C(F)(F)F)cc2)cnc2nc(Cl)nn12 (stereo partly drawn) landed at 100 to 1000 nM

Notebook: `CO[C@@H](C)c1c(Nc2ccc([C@H](N(C)C(=O)[C@H]3CC[C@H](O)CC3)C(F)(F)F)cc2)cnc2nc(Cl)nn12` , IC50 read as < 100 nM

Entry CO[C@@H](C)c1c(Nc2ccc(C(C)N(C)C(C)=O)cc2)cnc2nc(Cl)nn12 (stereo partly drawn) , IC50 reported as > 1000 nM

In plain terms, CO[C@@H](C)c1c(Nc2ccc(C(C)N(C)C(=O)C3CCC3)cc2)cnc2nc(Cl)nn12 (stereo partly drawn) has a documented IC50 of > 1000 nM

---

Items are presented alongside their recorded fraction unbound at 4 h, 2 µM.
- assay-info: High Throughput Dialysis (HTD) Human Plasma Protein Binding Assay
- Type: in vitro ADME
- reported-conditions: pooled human plasma, pH 7.4, equilibrium dialysis, 37° C., read-out: Human PPB (% Unbound)

// known answers, use as guide
| chemical-structure | recorded-value |
| --- | --- |
| CO[C@@H](C)c1c(Nc2ccc([C@H](N(C)C(=O)C3CCN(S(C)(=O)=O)CC3)C(F)(F)F)cc2)cnc2nc(Cl)nn12 | < 0.08 |
| CC(=O)N1CCC(C(=O)N(C)[C@@H](c2ccc(Nc3cnc4nc(Cl)nn4c3C(C)C)cc2)C(F)(F)F)CC1 | < 0.08 |
| CO[C@@H](C)c1c(Nc2ccc([C@H](N(C)C(=O)C3CCN(C)CC3)C(F)(F)F)cc2)cnc2nc(Cl)nn12 | > 0.2 |
| CO[C@@H](C)c1c(Nc2ccc([C@H](N(C)C(=O)C3CN(C(C)=O)C3)C(F)(F)F)cc2)cnc2nc(Cl)nn12 | > 0.2 |

In plain terms, `CO[C@@H](C)c1c(Nc2ccc([C@H](N(C)C(=O)C3CCN(C(=O)C4CC4)CC3)C(F)(F)F)cc2)cnc2nc(Cl)nn12` has a documented fraction unbound at 4 h, 2 µM of 0.08 to 0.2

`CO[C@@H](C)c1c(Nc2ccc([C@H](N(C)C(=O)[C@H]3CC[C@H](C(N)=O)CC3)C(F)(F)F)cc2)cnc2nc(Cl)nn12` has a reported fraction unbound at 4 h, 2 µM of 0.08 to 0.2

---

- System: IL-2 in Jurkat (ATCC, clone E6.1) cells stimulated with anti-CD3/28/2
- assay-info: Jurkat IL-2 Assay
- Format: cell-based
- reported-conditions: Homo sapiens; IL-2 inhibition, Jurkat cells, 30 min compound then anti-CD3/28/2 stimulation for 24 hours; mean value if tested more than once; read-out: IC50
- Experimental: Inhibition was determined in a cell-based assay using Jurkat (ATCC, clone E6.1), an immortalized T-cell line, exposed to a dose response of compound and assessed for viability, and Il-2 inhibition by ELISA. […] Supernatant was collected and assessed for Il-2 (MSD, 384w, L21SA-1). To assess viability of cells treated with compound, cells were lysed with CTG reagent (Promega, G7570), and measured by luminometer. […] IC50s calculated using 4-parameter fit in GraphPad Prism. […]
pIC50: −log10 of the molar value.
readout-name: pIC50

| molecule | recorded-value |
| --- | --- |
| CC(C)c1c(Nc2ccc([C@H](N(C)C(=O)[C@H]3CC[C@H](C(=O)O)CC3)C(F)(F)F)cc2)cnc2nc(Cl)nn12 | 6.00 to 7.00 |
| CO[C@@H](C)c1c(Nc2ccc([C@H](N(C)C(=O)C3CCC3)C(F)(F)F)c(C)c2)cnc2nc(Cl)nn12 | < 6.00 |
| CO[C@@H](C)c1c(Nc2ccc([C@H](N(C)C(=O)C3CCS(=O)(=O)CC3)C(F)(F)F)cc2C)cnc2nc(Cl)nn12 | < 6.00 |
| CO[C@@H](C)c1c(Nc2ccc([C@H](N(C)C(=O)C3CCN(C(=O)OC(C)(C)C)C3)C(F)(F)F)cc2)cnc2nc(Cl)nn12 (stereo partly shown) | < 6.00 |
| CO[C@@H](C)c1c(Nc2ccc(C(C)N(C)C(=O)C3CC3)cc2)cnc2nc(Cl)nn12 (stereo partly shown) | < 6.00 |
| COC(=O)[C@H]1CC[C@H](C(=O)N(C)[C@@H](c2ccc(Nc3cnc4nc(Cl)nn4c3[C@H](C)OC)cc2)C(F)(F)F)CC1 | 6.00 to 7.00 |
| CO[C@H](C)c1c(Nc2ccc([C@H](N(C)C(=O)C3CCN(C(C)=O)CC3)C(F)(F)F)cc2)cnc2nc(Cl)nn12 | 6.00 to 7.00 |
| CO[C@@H](C)c1c(Nc2ccc([C@H](N(C)C(=O)C3CCSCC3)C(F)(F)F)cc2)cnc2nc(Cl)nn12 | 6.00 to 7.00 |
| CO[C@@H](C)c1c(Nc2ccc([C@H](N(C)C(=O)C3CCN(C(C)=O)CC3)C(F)(F)F)cc2)cnc2nc(Cl)nn12 | 6.00 to 7.00 |
| CO[C@@H](C)c1c(Nc2ccc([C@H](N(C)C(=O)[C@H]3C[C@H](C#N)C3)C(F)(F)F)cc2)cnc2nc(Cl)nn12 | 6.00 to 7.00 |

The reported pIC50 value, IL-2 in Jurkat (ATCC, clone E6.1) cells stimulated with anti-CD3/28/2, for CO[C@@H](C)c1c(Nc2ccc([C@H](N(C)C(=O)C3CCC(CNC(C)=O)CC3)C(F)(F)F)cc2)cnc2nc(Cl)nn12 (stereo partly shown) reads 6.00 to 7.00

IL-2 in Jurkat (ATCC, clone E6.1) cells stimulated with anti-CD3/28/2 assay, molecule CO[C@@H](C)c1c(Nc2ccc([C@H](N(C)C(=O)C3CCC(CNC(=O)OC(C)(C)C)CC3)C(F)(F)F)cc2)cnc2nc(Cl)nn12 (stereo partly shown) , recorded pIC50 = 6.00 to 7.00

pIC50 for IL-2 in Jurkat (ATCC, clone E6.1) cells stimulated with anti-CD3/28/2 with input CO[C@@H](C)c1c(Nc2ccc([C@H](N(C)C(=O)C3CCCNC3)C(F)(F)F)cc2)cnc2nc(Cl)nn12 (stereo partly shown) equals < 6.00
